# Tested on: XF 498 CNS
# Method Notes: NCI tumour cell line growth inhibition, 48 h
Answer each item with its documented TGI.
All answers are understood in µM, so give the number only.

State its TGI: Cc1cccc2c1N(C(=O)/C=C\C(=O)O)C(c1c(C)[nH]c3ccccc13)C2 (stereo not given)
40.6

Note TGI for the compound shown: O=C(c1ccccc1)[C@H]1Nc2ccc(Cl)cc2C2c3ccccc3CC21 (stereo not given in full)
72.5

Please report TGI for the following compound: OCC(O)C(O)C(O)c1nn(-c2ccc(Cl)cc2)c2nc3cc(Cl)c(Cl)cc3nc12 (stereo not given)
27.4

Supply reported TGI belonging to this compound: CC1(C)C(O)C[C@@H](O)[C@@]2(C)C1CC[C@]1(C)C2C[C@@H](O)[C@@H]2C([C@@]3(C)CC[C@@H](C(C)(C)O)O3)CCC21C (stereo not given in full)
33.7

Using known records, supply TGI for CC(=O)NC1=C(NCCN(C)C)C(=O)c2ccccc2C1=O
35.1
